- Tested on: Haemophilus influenzae
- measurement-notes: Antimicrobial susceptibility against Haemophilus influenzae D3 isolate with GyrA Ser84Tyr, ParC Glu88Lys and AcrR Leu31His, Ile121Val and Gln134Lys mutation
- Format: functional
endpoint-name: MIC (µg/mL)
Give bare numbers, in µg/mL.

Field: example entries. Status: answers known.
{"compound": "C[C@H]1COc2c(N3CCN(C)CC3)c(F)cc3c(=O)c(C(=O)O)cn1c23.C[C@H]1COc2c(N3CCN(C)CC3)c(F)cc3c(=O)c(C(=O)O)cn1c23.O [LEVOFLOXACIN]", "tested-system": "Haemophilus influenzae", "measured-value": 4}
{"compound": "CCn1cc(C(=O)O)c(=O)c2ccc(C)nc21 [NALIDIXIC ACID]", "tested-system": "Haemophilus influenzae", "measured-value": 128}
{"compound": "COc1c(N2C[C@@H]3CCCN[C@@H]3C2)c(F)cc2c(=O)c(C(=O)O)cn(C3CC3)c12 [MOXIFLOXACIN]", "tested-system": "Haemophilus influenzae", "measured-value": 2}

Next compound, please.
Looking up O=C(O)c1cn(C2CC2)c2cc(N3CCNCC3)c(F)cc2c1=O [CIPROFLOXACIN] , I see its MIC listed as 8

====

- Test system: Haemophilus influenzae
- measurement-notes: Antimicrobial susceptibility against Haemophilus influenzae D4 isolate with GyrA Ser84Tyr, ParC Glu88Lys and AcrR Leu31His, Ile121Val and Gln134Lys mutation
- Assay type: functional
endpoint-name: MIC (µg/mL)
One number for each entry, in µg/mL.

Worked examples, 3 molecules total:
{"smiles-repr": "C[C@H]1COc2c(N3CCN(C)CC3)c(F)cc3c(=O)c(C(=O)O)cn1c23.C[C@H]1COc2c(N3CCN(C)CC3)c(F)cc3c(=O)c(C(=O)O)cn1c23.O", "tested-system": "Haemophilus influenzae", "endpoint-name": "MIC", "units-symbol": "µg/mL", "measured-value": 4}
{"smiles-repr": "CCn1cc(C(=O)O)c(=O)c2ccc(C)nc21", "tested-system": "Haemophilus influenzae", "endpoint-name": "MIC", "units-symbol": "µg/mL", "measured-value": 128}
{"smiles-repr": "O=C(O)c1cn(C2CC2)c2cc(N3CCNCC3)c(F)cc2c1=O", "tested-system": "Haemophilus influenzae", "endpoint-name": "MIC", "units-symbol": "µg/mL", "measured-value": 16}

Now consider a different molecule.
COc1c(N2C[C@@H]3CCCN[C@@H]3C2)c(F)cc2c(=O)c(C(=O)O)cn(C3CC3)c12 has a reported MIC of 2

====

- Test system: Haemophilus influenzae
- measurement-notes: Antimicrobial susceptibility against Haemophilus influenzae B isolate with AcrR Leu31His mutation
- Format: functional
Hi there, I'd appreciate the recorded MIC for every entry that follows.
Give bare numbers, in µg/mL.

Consider the worked cases shown below.
{"compound": "C[C@H]1COc2c(N3CCN(C)CC3)c(F)cc3c(=O)c(C(=O)O)cn1c23.C[C@H]1COc2c(N3CCN(C)CC3)c(F)cc3c(=O)c(C(=O)O)cn1c23.O [LEVOFLOXACIN]", "measured-value": 0.03}
{"compound": "O=C(O)c1cn(C2CC2)c2cc(N3CCNCC3)c(F)cc2c1=O [CIPROFLOXACIN]", "measured-value": 0.03}
{"compound": "COc1c(N2C[C@@H]3CCCN[C@@H]3C2)c(F)cc2c(=O)c(C(=O)O)cn(C3CC3)c12 [MOXIFLOXACIN]", "measured-value": 0.06}

Proceed to the following item.
Record summary for CCn1cc(C(=O)O)c(=O)c2ccc(C)nc21 [NALIDIXIC ACID] : reported MIC = 0.5

====

- System: Haemophilus influenzae
- measurement-notes: Antimicrobial susceptibility against Haemophilus influenzae B2 isolate with GyrA Asp88Tyr and AcrR Leu31His mutation
- Format: functional
endpoint-name: MIC

{"compound": "O=C(O)c1cn(C2CC2)c2cc(N3CCNCC3)c(F)cc2c1=O [CIPROFLOXACIN]", "measured-value": "0.25 µg/mL"}
{"compound": "COc1c(N2C[C@@H]3CCCN[C@@H]3C2)c(F)cc2c(=O)c(C(=O)O)cn(C3CC3)c12 [MOXIFLOXACIN]", "measured-value": "0.25 µg/mL"}
{"compound": "CCn1cc(C(=O)O)c(=O)c2ccc(C)nc21 [NALIDIXIC ACID]", "measured-value": "64 µg/mL"}

# compound C[C@H]1COc2c(N3CCN(C)CC3)c(F)cc3c(=O)c(C(=O)O)cn1c23.C[C@H]1COc2c(N3CCN(C)CC3)c(F)cc3c(=O)c(C(=O)O)cn1c23.O [LEVOFLOXACIN] ; its MIC = 0.25 µg/mL

====

- System: Haemophilus influenzae
- measurement-notes: Antimicrobial susceptibility against Haemophilus influenzae A4 isolate with GyrA Glu83Cys, ParC Ser84Arg and AcrR 97stop codon mutation
- Assay type: functional
Consider the following compounds; for each one, report its MIC.
One number for each entry, in µg/mL.

Example cases with answers are listed next.
{"compound": "C[C@H]1COc2c(N3CCN(C)CC3)c(F)cc3c(=O)c(C(=O)O)cn1c23.C[C@H]1COc2c(N3CCN(C)CC3)c(F)cc3c(=O)c(C(=O)O)cn1c23.O [LEVOFLOXACIN]", "units-symbol": "µg/mL", "measured-value": 4}
{"compound": "COc1c(N2C[C@@H]3CCCN[C@@H]3C2)c(F)cc2c(=O)c(C(=O)O)cn(C3CC3)c12 [MOXIFLOXACIN]", "units-symbol": "µg/mL", "measured-value": 2}
{"compound": "CCn1cc(C(=O)O)c(=O)c2ccc(C)nc21 [NALIDIXIC ACID]", "units-symbol": "µg/mL", "measured-value": 128}

Recorded MIC (compound O=C(O)c1cn(C2CC2)c2cc(N3CCNCC3)c(F)cc2c1=O [CIPROFLOXACIN] ): 4

====

- Test system: Haemophilus influenzae
- measurement-notes: Antimicrobial susceptibility against Haemophilus influenzae B1 isolate with GyrA Asp88Tyr and AcrR Leu31His mutation
- Format: functional
Provide the reported MIC of each item.
Answers are plain numbers, in µg/mL.

Below: 3 compounds and their reported MIC.
{"compound": "O=C(O)c1cn(C2CC2)c2cc(N3CCNCC3)c(F)cc2c1=O [CIPROFLOXACIN]", "tested-system": "Haemophilus influenzae", "MIC (µg/mL)": 0.12}
{"compound": "COc1c(N2C[C@@H]3CCCN[C@@H]3C2)c(F)cc2c(=O)c(C(=O)O)cn(C3CC3)c12 [MOXIFLOXACIN]", "tested-system": "Haemophilus influenzae", "MIC (µg/mL)": 0.25}
{"compound": "C[C@H]1COc2c(N3CCN(C)CC3)c(F)cc3c(=O)c(C(=O)O)cn1c23.C[C@H]1COc2c(N3CCN(C)CC3)c(F)cc3c(=O)c(C(=O)O)cn1c23.O [LEVOFLOXACIN]", "tested-system": "Haemophilus influenzae", "MIC (µg/mL)": 0.25}

Next, consider the following compound.
GET /value?item= CCn1cc(C(=O)O)c(=O)c2ccc(C)nc21 [NALIDIXIC ACID] &field=MIC returns 32
